Experiment: activity coefficient (dimensionless); of the first substance listed, at infinite dilution; xn = mol fraction of the nth substance listed
Assay Conditions: 338.15 K; 101 kPa; Liquid; Chromatography; x1 = 0
// returns 0 unless activity coefficient is strictly below 6, in which case 1

Known results for compounds:
compound="C=CCCCCC [1-heptene] + CCCCCC[n+]1ccc2ccccc2c1.N#C[S-]" class=0
compound="C1=CCCCC1 [cyclohexene] + CCCCCC[n+]1ccc2ccccc2c1.N#C[S-]" class=0

Ask | # check: activity coefficient < 6 for c1ccncc1 [pyridine] + CCCCCC[n+]1ccc2ccccc2c1.N#C[S-]
Reply | 1

Ask | # check: activity coefficient < 6 for CCCCCCC [heptane] + CCCCCC[n+]1ccc2ccccc2c1.N#C[S-]
Reply | 0

Ask | # check: activity coefficient < 6 for C1CCCC1 [cyclopentane] + CCCCCC[n+]1ccc2ccccc2c1.N#C[S-]
Reply | 0

Ask | # check: activity coefficient < 6 for CC1CCCCC1 [methylcyclohexane] + CCCCCC[n+]1ccc2ccccc2c1.N#C[S-]
Reply | 0

Ask | # check: activity coefficient < 6 for C1CCOC1 [tetrahydrofuran] + CCCCCC[n+]1ccc2ccccc2c1.N#C[S-]
Reply | 1

Ask | # check: activity coefficient < 6 for C=CCCCCCCCC [1-decene] + CCCCCC[n+]1ccc2ccccc2c1.N#C[S-]
Reply | 0

Ask | # check: activity coefficient < 6 for CCCCCCCC [octane] + CCCCCC[n+]1ccc2ccccc2c1.N#C[S-]
Reply | 0

Ask | # check: activity coefficient < 6 for C#CCCCC [1-hexyne] + CCCCCC[n+]1ccc2ccccc2c1.N#C[S-]
Reply | 1
